Known MIC Enterococcus faecium (GC 4557) of a selection of compounds
- System: Enterococcus sp.
- Experiment: in vitro antibacterial evaluation, MIC by broth dilution
- Format: cell-based
- Cond: strain GC 4557; broth dilution, 18 hours at 35° C.
Experimental Endpoint: MIC Enterococcus faecium (GC 4557) (µg/mL)

Compound	Target Of Assay	Readout Value
COc1cccc(C2OC3C(OC4C(CO)OC(Oc5ccc(CC6NC(=O)C(C(C)c7ccccc7)NC(=O)CNC(=O)C(CO)NC(=O)C(C(O)C7CNC(=N)N7C7OC(CO)C(O)C(O)C7O)NC(=O)C(C(O)C7CNC(=N)N7)NC6=O)cc5)C(O)C4O)OC(CO)C(O)C3O2)c1 (single isomer, unassigned) [Example 137b]	Enterococcus sp.	8
CC(c1ccccc1)C1NC(=O)CNC(=O)C(CO)NC(=O)C(C(O)C2CNC(=N)N2C2OC(CO)C(O)C(O)C2O)NC(=O)C(C(O)C2CNC(=N)N2)NC(=O)C(Cc2ccc3oc(SCc4ccc5ccccc5c4)nc3c2)NC1=O (centres unmarked)	Enterococcus sp.	8

----------
- System: Staphylococcus sp.
- Experiment: in vitro antibacterial evaluation, MIC by broth dilution
- Type: cell-based
- Cond: broth dilution, 18 hours at 35° C.
Experimental Endpoint: MIC Coagulase Negative Staphylococcus (GC 4549) (µg/mL)

Molecule	Value Prefix	Readout Value
CCCCCCN=C1NCC(C(O)C2NC(=O)C(C(O)C3CNC(=N)N3)NC(=O)C(Cc3ccc(OC4OC(CO)C(OC5OC6COC7(OC6C(O)C5O)C5CC6CC(C5)CC7C6)C(O)C4O)cc3)NC(=O)C(C(C)c3ccccc3)NC(=O)CNC(=O)C(CO)NC2=O)N1C1OC(CO)C(O)C(O)C1O (stereo not shown) [Example 84]	=	4
CC(c1ccccc1)C1NC(=O)CNC(=O)C(CO)NC(=O)C(C(O)C2CNC(=N)N2C2OC(CO)C(O)C(O)C2O)NC(=O)C(C(O)C2CNC(=N)N2)NC(=O)C(Cc2ccc(OC3OC(CO)C(OC4OC(CO)C(O)C(O)C4O)C(O)C3O)c(N)c2)NC1=O (stereo not shown) [Example 287]	>	64
CC(c1ccccc1)C1NC(=O)CNC(=O)C(CO)NC(=O)C(C(O)C2CNC(=N)N2C2OC(CO)C(O)C(O)C2O)NC(=O)C(C(O)C2CNC(=N)N2)NC(=O)C(Cc2ccc(OC3OC(CO)C(OC4OC(COC(=O)NCc5ccccc5)C(O)C(O)C4O)C(O)C3O)cc2)NC1=O (stereo not shown) [Example 257b]	=	2

----------
- Test system: Enterococcus sp.
- Experiment: in vitro antibacterial evaluation, MIC by broth dilution
- Format: cell-based
- Cond: broth dilution, inoculum 5×10^5 CFU/mL, 18 hours at 35° C.; strain GC 2691
Known MIC Enterococcus faecalis (GC 2691) of a selection of compounds

Compound	Target Of Assay	Value Prefix	MIC Enterococcus faecalis (GC 2691) / µg/mL
CC(c1ccccc1)C1NC(=O)CNC(=O)C(CO)NC(=O)C(C(O)C2CNC(=N)N2C2OC(CO)C(O)C(O)C2O)NC(=O)C(C(O)C2CNC(=N)N2)NC(=O)C(Cc2ccc(OC3OC(CO)C(OC4OC5COC6(CCCCC6C)OC5C(O)C4O)C(O)C3O)cc2)NC1=O (stereo not shown) [Example 204]	Enterococcus sp.	=	16
COc1ccc2cc(COCC3OC(OC4C(CO)OC(Oc5ccc(CC6NC(=O)C(C(C)c7ccccc7)NC(=O)CNC(=O)C(CO)NC(=O)C(C(O)C7CNC(=N)N7C7OC(CO)C(O)C(O)C7O)NC(=O)C(C(O)C7CNC(=N)N7)NC6=O)cc5)C(O)C4O)C(O)C(O)C3O)ccc2c1 (stereo not shown) [Example 230]	Enterococcus sp.	=	4
CC(c1ccccc1)C1NC(=O)CNC(=O)C(CO)NC(=O)C(C(O)C2CN(c3ncccn3)C(=N)N2C2OC(CO)C(O)C(O)C2O)NC(=O)C(C(O)C2CNC(=Nc3ncccn3)N2)NC(=O)C(Cc2ccc(OC3OC(CO)C(OC4OC5COC6(OC5C(O)C4O)C4CC5CC(C4)CC6C5)C(O)C3O)cc2)NC1=O (stereo not shown) [Example 228]	Enterococcus sp.	=	32
COc1cc(C2OCC3OC(OC4C(CO)OC(Oc5ccc(CC6NC(=O)C(C(C)c7ccccc7)NC(=O)CNC(=O)C(CO)NC(=O)C(C(O)C7CNC(=N)N7C7OC(CO)C(O)C(O)C7O)NC(=O)C(C(O)C7CNC(=N)N7)NC6=O)cc5)C(O)C4O)C(O)C(O)C3O2)cc([N+](=O)[O-])c1O (stereo not shown) [Example 169]	Enterococcus sp.	>	64

----------
Known MIC Staphylococcus aureus (GC 4545) of a selection of compounds
- Tested on: Staphylococcus sp.
- Experiment: in vitro antibacterial evaluation, MIC by broth dilution
- Assay type: cell-based
- Cond: strain GC 4545; broth dilution, 18 hours at 35° C.
Experimental Endpoint: MIC Staphylococcus aureus (GC 4545) (µg/mL)

Compound	Units Symbol	Value Prefix	Readout Value
CC(C)=CCCC(C)=CCN=C1NCC(C(O)C2NC(=O)C(C(O)C3CNC(=N)N3)NC(=O)C(Cc3ccc(OC4OC(CO)C(OC5OC6COC7(OC6C(O)C5O)C5CC6CC(C5)CC7C6)C(O)C4O)cc3)NC(=O)C(C(C)c3ccccc3)NC(=O)CNC(=O)C(CO)NC2=O)N1C1OC(CO)C(O)C(O)C1O (centres unmarked) [Example 82]	µg/mL	=	8
CC(C1CCCCC1)C1NC(=O)CNC(=O)C(CO)NC(=O)C(C(O)C2CNC(=N)N2C2OC(CO)C(O)C(O)C2O)NC(=O)C(C(O)C2CNC(=N)N2)NC(=O)C(C[C@H]2CC[C@H](O)CC2)NC1=O (some centres unmarked) [Example 54a]	µg/mL	>	128

----------
- System: Enterococcus sp.
- Experiment: in vitro antibacterial evaluation, MIC by broth dilution
- Type: cell-based
- Cond: strain GC 6189; broth dilution, 18 hours at 35° C.

Compound	Value Prefix	MIC Enterococcus faecalis (GC 6189) (µg/mL)
CC(c1ccccc1)C1NC(=O)CNC(=O)C(CO)NC(=O)C(CC2CNC(=N)N2C2OC(CO)C(O)C(O)C2O)NC(=O)C(CC2CNC(=N)N2)NC(=O)C(Cc2ccc3oc(-c4ccc5c(c4)Cc4ccccc4-5)nc3c2)NC1=O (stereo not shown)	=	8
CC(c1ccccc1)C1NC(=O)CNC(=O)C(CO)NC(=O)C(C(O)C2CNC(=N)N2C2OC(CO)C(O)C(O)C2O)NC(=O)C(C(O)C2CNC(=N)N2)NC(=O)C(Cc2ccc(OC3OC(CO)C(OC4OC5COC(c6cccc(Cl)c6)OC5C(O)C4O)C(O)C3O)cc2)NC1=O (stereo not shown)	=	4
CC(c1ccccc1)C1NC(=O)CNC(=O)C(CO)NC(=O)C(C(O)C2CNC(=N)N2C2OC(CO)C(O)C(O)C2O)NC(=O)C(C(O)C2CNC(=N)N2)NC(=O)C(Cc2ccc(OC3OC(CO)C(OC4OC5COC(c6cc7c(cc6Cl)OCO7)OC5C(O)C4O)C(O)C3O)cc2)NC1=O (stereo not shown)	=	4
CC(c1ccccc1)C1NC(=O)CNC(=O)C(CO)NC(=O)C(C(O)C2CNC(=N)N2C2OC(CO)C(O)C(O)C2O)NC(=O)C(C(O)C2CNC(=N)N2)NC(=O)C(Cc2ccc(OC3OC(CO)C(OC4OC5COC(c6ccc(C(=O)c7ccccc7)cc6)OC5C(O)C4O)C(O)C3O)cc2)NC1=O (stereo not shown)	=	1
CC(c1ccccc1)C1NC(=O)CNC(=O)C(CO)NC(=O)C(C(O)C2CNC(=N)N2C2OC(CO)C(O)C(O)C2O)NC(=O)C(C(O)C2CNC(=N)N2)NC(=O)C(Cc2ccc(O)c(NC(=O)c3ccccc3)c2)NC1=O (stereo not shown)	>	64
COc1ccc(Oc2cccc(C3OCC4OC(OC5C(CO)OC(Oc6ccc(CC7NC(=O)C(C(C)c8ccccc8)NC(=O)CNC(=O)C(CO)NC(=O)C(C(O)C8CNC(=N)N8C8OC(CO)C(O)C(O)C8O)NC(=O)C(C(O)C8CNC(=N)N8)NC7=O)cc6)C(O)C5O)C(O)C(O)C4O3)c2)cc1 (stereo not shown)	=	2
CCOc1cc(C2OCC3OC(OC4C(CO)OC(Oc5ccc(CC6NC(=O)C(C(C)c7ccccc7)NC(=O)CNC(=O)C(CO)NC(=O)C(C(O)C7CNC(=N)N7C7OC(CO)C(O)C(O)C7O)NC(=O)C(C(O)C7CNC(=N)N7)NC6=O)cc5)C(O)C4O)C(O)C(O)C3O2)ccc1[N+](=O)[O-] (stereo not shown)	=	32
CC(c1ccccc1)C1NC(=O)CNC(=O)C(CO)NC(=O)C(C(O)C2CNC(=N)N2C2OC(CO)C(O)C(O)C2O)NC(=O)C(C(O)C2CNC(=N)N2)NC(=O)C(Cc2ccc3oc(SCC(=O)c4ccc(Cl)cc4)nc3c2)NC1=O (stereo not shown)	=	16
Cc1ccc(Oc2ccc(C3OCC4OC(OC5C(CO)OC(Oc6ccc(CC7NC(=O)C(C(C)c8ccccc8)NC(=O)CNC(=O)C(CO)NC(=O)C(C(O)C8CNC(=N)N8C8OC(CO)C(O)C(O)C8O)NC(=O)C(C(O)C8CNC(=N)N8)NC7=O)cc6)C(O)C5O)C(O)C(O)C4O3)cc2)cc1 (stereo not shown)	=	2
CC(C1CCCCC1)C1NC(=O)CNC(=O)C(CO)NC(=O)C(C(O)C2CNC(=N)N2C2OC(CO)C(O)C(O)C2O)NC(=O)C(C(O)C2CNC(=N)N2)NC(=O)C(CC2CCC(OC3OC(CO)C(OC4OC(CO)C(O)C(O)C4O)C(O)C3O)CC2)NC1=O (stereo not shown) [Example 53a]	>	128

Taken from patent US6914045B2.
